Listing of recorded melting point by entry.
Counter-ions that a name gives are not always drawn.

Completed entries (count: 3):
C[C@H](COc1ccc(-c2ccc(=O)n(C)n2)cc1)CN1CCC[C@H]1C (as salt: HCl); 188 to 190 °C
Cc1cc(=O)[nH]nc1-c1ccc(OC2CCN(C3CCC3)CC2)cc1; > 300 °C
C[C@@H]1CCCN1CCCOc1ccc(C2=NN(C)C(=O)C3CCCC23)cc1 (stereo partly shown) (as salt: HCl); < 50 °C

// recorded melting point for C[C@@H]1CCCN1CCCOc1ccc(-c2n[nH]c(=O)c3c2CCC3)cc1 (as salt: HCl) : 147 °C

// recorded melting point for CCn1nc(-c2ccc(OCCCN3CCC[C@H]3C)cc2)ccc1=O (as salt: tartrate) : 58 to 62 °C

###

Counter-ions that a name gives are not always drawn.
Quantity measured: melting point

// recorded melting point for C[C@@H]1CCCN1CCCOc1ccc(-c2ccc(=O)[nH]n2)c(F)c1 : 220 to 222 °C

// recorded melting point for O=c1[nH]nc(-c2ccc(OC3CCN(C4CCC4)CC3)cc2)c2c1CCC2 : 210 to 213 °C

// recorded melting point for C[C@@H]1CCCN1CCCOc1ccc(-n2ncc3ccccc3c2=O)cc1 : 70 to 73 °C

// recorded melting point for O=C1CCC(c2ccc(OC3CCN(C4CCC4)CC3)cc2)=NN1 : 196 to 198 °C

// recorded melting point for CN(CCCOc1ccc(-c2ccc(=O)[nH]n2)cc1)C1CCCC1 : 95 to 98 °C

// recorded melting point for O=c1cc(-c2ccccn2)c(-c2ccc(OC3CCN(C4CCC4)CC3)cc2)n[nH]1 : 203 °C (dec.)

// recorded melting point for CCCn1nc(-c2ccc(OCCCN3CCC[C@H]3CN3CCCC3)cc2)c2sccc2c1=O (as salt: HCl) : 123 °C (dec.)

// recorded melting point for O=C1C2CC2C(c2ccc(OC3CCN(C4CCC4)CC3)cc2)=NN1CC(F)(F)F (centres unmarked) (as salt: HCl) : 110 to 121 °C

// recorded melting point for O=c1ccc(-c2ccc(OC3CCN(C4CCC4)CC3)cc2)n[nH]1 : 215 to 220 °C

// recorded melting point for COc1cc(-c2ccc(=O)[nH]n2)ccc1OCCCN1CCCCC1 : 175 °C (dec.)

// recorded melting point for O=C1CCC(c2ccc(OC3CCN(C4CCC4)CC3)nc2)=NN1C1CCC1 : 146 to 149 °C

// recorded melting point for CN1N=C(c2ccc(OCCCN3CCCCC3)cc2)C2CCCC2C1=O (centres unmarked) (as salt: HCl) : < 50 °C

// recorded melting point for CCCn1nc(-c2ccc(OCCCN3[C@H](C)CC[C@H]3C)cc2)c2sccc2c1=O (as salt: HCl) : 84 °C (dec.)

###

Listing of recorded Ki by entry.
# Target entity: rat histamine H3 receptor (Rattus norvegicus, UniProt Q9QYN8)
# Construct: encoding the entire 445-amino-acid rat histamine H3 receptor; expressed in transfected cells
# Sequence (Q9QYN8 whole entry): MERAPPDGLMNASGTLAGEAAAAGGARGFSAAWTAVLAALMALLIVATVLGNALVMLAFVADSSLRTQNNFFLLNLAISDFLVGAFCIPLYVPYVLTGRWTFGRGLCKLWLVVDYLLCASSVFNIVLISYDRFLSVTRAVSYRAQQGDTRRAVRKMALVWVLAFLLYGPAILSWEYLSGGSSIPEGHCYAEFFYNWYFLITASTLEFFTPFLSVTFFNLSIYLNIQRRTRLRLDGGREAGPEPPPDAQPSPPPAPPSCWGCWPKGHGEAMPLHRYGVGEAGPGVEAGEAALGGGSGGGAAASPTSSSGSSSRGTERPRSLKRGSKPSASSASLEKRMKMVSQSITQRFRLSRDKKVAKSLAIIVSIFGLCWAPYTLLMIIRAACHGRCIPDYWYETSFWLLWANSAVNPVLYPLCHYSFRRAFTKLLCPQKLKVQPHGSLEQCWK
# Test summary: Rat H3 radioligand binding ([3H]-N-alpha-methylhistamine, CHO-A3 cell membranes, SPA)
# Reported conditions: Table B, binding constant as letter class; read-out: rat H3 Ki

Completed entries (count: 3):
CC1CC(=O)NN=C1c1ccc(OCCCN2CCC[C@H]2C)cc1 (mixture of isomers) [Example 194]; 0.1 to 100 nM
O=c1[nH]nc(-c2ccc(OCCCN3CCCCC3)cc2)c2c1CCC2 [Example 133]; 0.1 to 100 nM
Cc1cc(OCCCN2CCCCC2)ccc1-c1ccc(=O)[nH]n1 [Example 137]; 0.1 to 100 nM

// recorded Ki for C[C@H](COc1ccc(C2=NNC(=O)C3CC23)cc1)CN1CCC[C@H]1C (stereo partly shown) [Example 245] : 0.1 to 100 nM

// recorded Ki for CC1=NNC(=O)CC1c1ccc(OC2CCN(C3CCC3)CC2)cc1 (stereo not shown) [Example 110] : 0.1 to 100 nM

// recorded Ki for Cc1nn(-c2ccsc2)c(=O)cc1-c1ccc(OCCCN2CCC[C@H]2C)cc1 [Example 108] : 0.1 to 100 nM

// recorded Ki for CCN1N=C(c2ccc(OC3CCN(C4CCC4)CC3)cc2)C2CC2C1=O (stereo not shown) [Example 250] : 0.1 to 100 nM

###

# Target entity: human H3 receptor (Homo sapiens, UniProt Q9Y5N1)
# Construct: expressed in transfected cells
# Sequence (Q9Y5N1 whole entry): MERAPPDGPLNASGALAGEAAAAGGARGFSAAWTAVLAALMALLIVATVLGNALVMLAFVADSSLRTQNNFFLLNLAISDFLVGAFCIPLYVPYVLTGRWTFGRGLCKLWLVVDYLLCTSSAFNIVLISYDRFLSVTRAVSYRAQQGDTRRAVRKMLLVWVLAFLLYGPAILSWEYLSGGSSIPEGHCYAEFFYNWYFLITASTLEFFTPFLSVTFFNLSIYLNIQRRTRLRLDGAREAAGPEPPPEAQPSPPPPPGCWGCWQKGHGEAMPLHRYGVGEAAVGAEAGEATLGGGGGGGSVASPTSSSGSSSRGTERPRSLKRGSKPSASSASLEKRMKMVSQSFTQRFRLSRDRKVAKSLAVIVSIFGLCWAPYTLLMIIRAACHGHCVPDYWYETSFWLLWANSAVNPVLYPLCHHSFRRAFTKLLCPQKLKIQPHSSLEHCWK
# Test summary: Human H3 radioligand binding ([3H]-N-alpha-methylhistamine, CHO cell membranes, SPA)
# Reported conditions: Table B, binding constant as letter class
pKi: −log10 of the molar value.
Quantity measured: pKi

Completed entries (count: 3):
Cc1n[nH]c(=O)cc1-c1ccc(OC2CCNCC2)cc1.Cl; < 6.00
CN(CCCOc1ccc(-c2ccc(=O)[nH]n2)cc1)C1CCC1; 6.30 to 7.00
Cc1nn(-c2ccccn2)c(=O)cc1-c1ccc(OCCCN2CCC[C@H]2C)cc1; 7.00 to 10.00

Now examine the next entry.
// recorded pKi for O=C1CCC(c2ccc(OC3CCN(C4CCC4)CC3)cc2)=NN1c1ccccn1 : 7.00 to 10.00

###

Where a name gives a salt, the structure may show the parent alone.
Quantity measured: melting point

Cn1nc(-c2ccc(OCCCN3CCCCC3)cc2)cc(Cc2ccccc2)c1=O (as salt: HCl); 186 to 187 °C
O=c1ccc(-c2ccc(OCCCN3CCCCC3)cc2)n[nH]1; 186 °C (dec.)

// recorded melting point for C[C@@H]1CCCN1CCCOc1ccc(C2=NNC(=O)CC2(C)C)cc1 : 118 to 121 °C

// recorded melting point for C[C@@H]1CCCN1CCCOc1ccc(-n2nc(C3CC3)ccc2=O)cc1 (as salt: fumarate) : 51 to 55 °C

// recorded melting point for CC(C)n1nc(-c2ccc(OCCCN3CCCCC3)cc2)ccc1=O (as salt: HCl) : 118 to 122 °C

// recorded melting point for Cn1nc(-c2ccc(OCCCN3CCC[C@H]3CO)cc2)ccc1=O (as salt: HCl) : 169 °C

// recorded melting point for CC(C)N1CCC(COc2ccc(-c3ccc(=O)[nH]n3)cn2)CC1 : 188 to 191 °C

// recorded melting point for C[C@@H]1CCCN1CCCOc1ccc(C2=NNC(=O)CC2)cc1F : 132 to 133 °C

// recorded melting point for CC1CC(c2ccc(OCCCN3CCC[C@H]3C)cc2)=NNC1=O (stereo partly drawn) (as salt: HCl) : 201 to 203 °C

###

Counter-ions that a name gives are not always drawn.
Listing of recorded melting point by entry.

Completed entries (count: 4):
Cc1cc(OCCCN2CCCCC2)ccc1-c1ccc(=O)[nH]n1 [Example 137]; 114 °C (dec.)
O=C1CCC(c2ccc(OC3CCN(C4CCC4)CC3)cc2)=NN1C1CCC1 [Example 163]; 120 to 123 °C
Cn1nc(-c2cccc(OCCCN3CCC[C@H]3CO)c2)c2c(c1=O)CCC2 (as salt: HCl) [Example 127]; 193 to 194 °C
Cn1nc(-c2ccc(OCCCN3CCCCC3)cc2)c2c(c1=O)CCCC2 (as salt: HCl) [Example 61]; 196 to 198 °C

// recorded melting point for CCN1N=C(c2ccc(OC3CCN(C4CCC4)CC3)cc2)C2CC2C1=O (stereo not shown) (as salt: HCl) [Example 250] : 246 to 248 °C

// recorded melting point for O=c1ccc(-c2ccc(OCCCN3CCCC3)cc2)n[nH]1 [Example 240] : 154 to 157 °C

// recorded melting point for COc1cn[nH]c(=O)c1-c1ccc(OCCCN2CCC[C@H]2C)cc1 (as salt: hydrochloride) [Example 237] : 135 to 140 °C

###

# Target entity: human H3 receptor (Homo sapiens)
# Construct: expressed in transfected cells
# Test summary: Human H3 radioligand binding ([3H]-N-alpha-methylhistamine, CHO cell membranes, SPA)
# Reported conditions: Table B, binding constant as letter class
pKi: −log10 of the molar value.
Quantity measured: pKi

Completed entries (count: 8):
Cc1cc(OCCCN2CCCCC2)ccc1-c1ccc(=O)[nH]n1 [Example 137]; 7.00 to 10.00
CC(C)n1ncc(-c2ccc(OCCCN3CCC[C@H]3C)cc2)cc1=O [Example 128]; 7.00 to 10.00
C[C@@H]1CCCN1CCCOc1ccc(-c2ccc(=O)[nH]n2)cn1 [Example 146]; 7.00 to 10.00
CN1N=C(c2ccc(OC3CCN(C4CCC4)CC3)cc2)C2CC2C1=O (stereo not drawn) [Example 252]; 7.00 to 10.00
Cn1nc(-c2ccc(OC3CCN(C4CCCC4)CC3)nc2)ccc1=O [Example 143]; 7.00 to 10.00
Cc1onc2c(=O)[nH]nc(-c3ccc(OC4CCN(C5CCC5)CC4)cc3)c12 [Example 205]; 6.30 to 7.00
COCn1ncc(OC)c(-c2ccc(OCCCN3CCC[C@H]3C)cc2)c1=O [Example 236]; 7.00 to 10.00
O=C1CCC(c2ccc(OC3CCN(C4CCC4)CC3)cc2)=NN1C1CCC1 [Example 163]; 7.00 to 10.00

// recorded pKi for C[C@@H]1CCCN1CC(O)COc1ccc(-c2ccc(=O)[nH]n2)cc1 (stereo partly drawn) [Example 256] : 7.00 to 10.00

// recorded pKi for Cc1n[nH]c(=O)cc1-c1ccc(OCCCN2CCC[C@H]2C)cc1 [Example 88] : 7.00 to 10.00

// recorded pKi for N#Cc1cc(-c2ccc(=O)[nH]n2)ccc1OCCCN1CCCCC1 [Example 130] : 6.30 to 7.00

// recorded pKi for C[C@@H]1CCCN1CCCOc1ccc(-c2ccc(=O)[nH]n2)cc1C#N [Example 129] : 7.00 to 10.00

All figures here come from patent US8586588B2.
